Just for reference, ChEMBL document CHEMBL5727946 is where these values come from.

Quick reference for pIC50 among some molecules
- System under test: Programmed cell death protein 1/Programmed cell death 1 ligand 1 (Homo sapiens, UniProt Q15116+Q9NZQ7)
- Sequence (Q15116 whole entry, the tested form may be a part): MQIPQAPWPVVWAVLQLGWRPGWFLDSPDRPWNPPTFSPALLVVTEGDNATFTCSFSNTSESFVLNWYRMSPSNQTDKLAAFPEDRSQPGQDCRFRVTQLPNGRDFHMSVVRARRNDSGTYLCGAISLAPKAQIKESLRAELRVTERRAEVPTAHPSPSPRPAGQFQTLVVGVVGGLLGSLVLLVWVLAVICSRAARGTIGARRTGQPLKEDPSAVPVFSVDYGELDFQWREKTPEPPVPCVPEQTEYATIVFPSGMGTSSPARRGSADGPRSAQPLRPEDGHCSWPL
- Sequence (Q9NZQ7 whole entry, the tested form may be a part): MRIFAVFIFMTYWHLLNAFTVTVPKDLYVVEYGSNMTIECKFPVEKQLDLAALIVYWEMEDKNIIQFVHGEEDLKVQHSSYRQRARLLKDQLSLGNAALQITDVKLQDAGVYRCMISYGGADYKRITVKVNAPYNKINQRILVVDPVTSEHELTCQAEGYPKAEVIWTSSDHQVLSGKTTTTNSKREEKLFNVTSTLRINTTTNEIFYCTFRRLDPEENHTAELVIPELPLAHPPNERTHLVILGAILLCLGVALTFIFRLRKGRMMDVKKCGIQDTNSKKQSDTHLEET
- Experiment description: PD-1/PD-L1 & CTLA/CD80 Biochemical Protein-Protein Interaction Assay: Compounds were tested in biochemical protein-protein interaction assays to determine if they can specifically block the interaction between the extracellular domains of PD-1/PD-L1 or CTLA/CD80. Binding of the protein pairs is measured using a bead based Amplified Luminescent Proximity Homogeneous Assay (ALPHA) platform. […] Final protein concentration in the assays were 0.3 nM (His tagged PD-L1), 2.5 nM (biotinylated Fc-PD-1), 1 nM (His tagged CTLA4) and 1 nM (biotinylated CD80).
pIC50: −log10 of the molar value.
Quantity measured: pIC50

cpd_smiles=COc1nc(-c2cccc(-c3cccc4c3CC[C@@H]4Oc3nc(OC)c(CN4CC[C@@H](C(=O)NS(C)(=O)=O)C4)cc3Cl)c2Cl)ccc1CNC[C@@H]1CCC(=O)N1 value="≥ 10.19"
cpd_smiles=COc1nc(-c2cccc(-c3cccc4c3CC[C@@H]4Oc3nc(OCc4cncc(F)c4)c(CN4CC5(C(=O)O)CCC4CC5)cc3Cl)c2Cl)ccc1CNC[C@@H]1CCC(=O)N1 value="≥ 10.19"
cpd_smiles=COc1nc(-c2cccc(-c3cccc4c3CC[C@@H]4Oc3nc(OC)c(CN4CCC[C@@H](C(=O)NS(C)(=O)=O)C4)cc3Cl)c2Cl)ccc1CNC[C@@H]1CCC(=O)N1 value=10.17
cpd_smiles=COc1nc(-c2cccc(-c3cccc4c3CC[C@@H]4Oc3nc(OC(F)F)c(CN4CC5(C(=O)O)CCC4CC5)cc3Cl)c2Cl)ccc1CNC[C@@H]1CCC(=O)N1 value=9.77
cpd_smiles=COc1nc(-c2cccc(-c3cccc4c3CC[C@@H]4Oc3nc(OC)c(CN4CC[C@@H](C(=O)NS(C)(=O)=O)C4)cc3Cl)c2Cl)ccc1CN1CC(C)(O)C1 value="≥ 10.19"
cpd_smiles=COc1nc(-c2cccc(-c3cccc4c3CC[C@@H]4Oc3nc(OC)c(CNC4(C(=O)O)CCOCC4)cc3Cl)c2Cl)ccc1CNC[C@@H]1CCC(=O)N1 value="≥ 10.19"
cpd_smiles=COc1nc(-c2cccc(-c3cccc4c3CC[C@@H]4Oc3nc(OC)c(CN4CC[C@@H](C(=O)NS(=O)(=O)C(F)F)C4)cc3Cl)c2Cl)ccc1CNC[C@@H]1CCC(=O)N1 value=9.82
cpd_smiles=COc1nc(-c2cccc(-c3cccc4c3CC[C@@H]4Oc3nc(OC)c(CNC4(C(=O)O)CC4)cc3Cl)c2Cl)ccc1CNC[C@@H]1CCC(=O)N1 value="≥ 10.19"
cpd_smiles=COc1nc(-c2cccc(-c3cccc4c3CC[C@@H]4Oc3nc(OC)c(CN[C@@H]4CCC[C@@H]4C(=O)O)cc3Cl)c2Cl)ccc1CNC[C@@H]1CCC(=O)N1 value="≥ 10.19"
cpd_smiles=COc1nc(-c2cccc(-c3cccc4c3CC[C@@H]4Oc3nc(OC)c(CN4CC(C(=O)NS(=O)(=O)C(F)F)C4)cc3Cl)c2Cl)ccc1CNC[C@@H]1CCC(=O)N1 value=9.70
cpd_smiles=COC(=O)[C@@H]1CCN(Cc2cc(Cl)c(O[C@H]3CCc4c(-c5cccc(-c6ccc(CNC[C@@H]7CCC(=O)N7)c(OC)n6)c5Cl)cccc43)nc2OC)C1 value=8.41
cpd_smiles=COc1nc(O[C@H]2CCc3c(-c4cccc(-c5cnc([C@@H](C)NC[C@H]6CCC(=O)N6)c(OC)n5)c4Cl)cccc32)c(Cl)cc1CN1CC[C@@H](C(=O)O)C1 value="≥ 10.19"
cpd_smiles=CCOc1nc(O[C@H]2CCc3c(-c4cccc(-c5ccc(CNC[C@@H]6CCC(=O)N6)c(OC)n5)c4Cl)cccc32)c(Cl)cc1CN1CC[C@H](C(=O)O)C1 value="≥ 10.19"
cpd_smiles=COc1nc(-c2cccc(-c3cccc4c3CC[C@@H]4Oc3nc(OCc4cncc(C#N)c4)c(CN4CC5(C(=O)O)CCC4CC5)cc3Cl)c2Cl)ccc1CNC[C@@H]1CCC(=O)N1 value="≥ 10.19"
cpd_smiles=COc1nc(-c2cccc(-c3cccc4c3CC[C@@H]4Oc3nc(OCc4cncc(C#N)c4)c(CN4CC[C@@H](C(=O)O)C4)cc3Cl)c2Cl)ccc1CNC[C@@H]1CCC(=O)N1 value="≥ 10.19"
cpd_smiles=COc1nc(-c2cccc(-c3cccc4c3CC[C@@H]4Oc3nc(OCc4cncc(Cl)c4)c(CNC4(C(=O)O)CC4)cc3C(F)(F)F)c2Cl)ccc1CNC[C@@H]1CCC(=O)N1 value=10.00
